Numbers sourced from patent US20090170846A1.

- TARGET SYSTEM: Full-length wild type HIV-1 integrase (SF1) (Human immunodeficiency virus type 1 group M subtype B)
- Construct: made in house; host or cells: E. coli BL21 (DE3)
- PROTOCOL SUMMARY: Integrase strand-transfer scintillation proximity assay
- Format: biochemical
- SETTINGS: integrase strand-transfer SPA; read-out: IC50
- Text: Integrase Strand-Transfer Scintillation Proximity Assay Oligonucleotides: Oligonucleotide #1-5′-(biotin)[…]-3′ (SEQ ID NO: 1) and oligonucleotide #2-5′-[…]-3′ (SEQ ID NO: 2), were synthesized by TriLink BioTechnologies, Inc. (San Diego, Calif.). The annealed product represents preprocessed viral ds-DNA derived from the LTR U5 sequence of the viral genome. […]
pIC50: −log10 of the molar value.
ASSAY METRIC: pIC50

| SMILES TEXT | READOUT NUMBER |
| --- | --- |
| CONC(=O)c1cc2c(C(=O)NCCCN3CCCC3=O)cn(Cc3ccc(F)cc3)c2cn1 | 6.57 |
| O=C(NO)c1cc2c(C(=O)N3CCC[C@H]3CO)cn(Cc3ccc(F)cc3)c2cn1 | 7.12 |
| CS(=O)(=O)Nc1cn(Cc2ccc(F)cc2)c2cnc(C(=O)NO)cc12 | 7.25 |
| CONC(=O)c1cc2c(C(=O)N3CCC[C@H]3CO)cn(Cc3ccc(F)cc3)c2cn1 | 5.94 |

----------
- TARGET SYSTEM: Full-length wild type HIV-1 integrase (SF1) (Human immunodeficiency virus type 1 group M subtype B)
- Construct: made in house; host or cells: E. coli BL21 (DE3)
- PROTOCOL SUMMARY: Integrase strand-transfer scintillation proximity assay
- Format: biochemical
- SETTINGS: integrase strand-transfer SPA; read-out: IC50
hey, just use Fulfilled if measured IC50 is less than 300 nM, otherwise Not fulfilled

| COMPOUND | CATEGORY |
| --- | --- |
| CN(O)C(=O)c1cc2c(C(=O)N3CCC[C@H]3CO)cn(Cc3ccc(F)cc3)c2cn1 | Not fulfilled |
| O=C(NO)c1cc2c(C(=O)N3CCCC(CO)C3)cn(Cc3ccc(F)cc3)c2cn1 (stereo not shown) | Fulfilled |
| O=C(NO)c1cc2c(NS(=O)(=O)c3ccc(Cl)s3)cn(Cc3ccc(F)cc3)c2cn1 | Fulfilled |
| CONC(=O)c1cc2c(C(=O)NCCN3CCOCC3)cn(Cc3ccc(F)cc3)c2cn1 | Not fulfilled |
| CONC(=O)c1cc2c(C(=O)N3CCC(N(C)C)C3)cn(Cc3ccc(F)cc3)c2cn1 (stereo not shown) | Not fulfilled |
| CCN1CCCC1CNC(=O)c1cn(Cc2ccc(F)cc2)c2cnc(C(=O)NOC)cc12 (stereo not shown) | Not fulfilled |

----------
- TARGET SYSTEM: Full-length wild type HIV-1 integrase (SF1) (Human immunodeficiency virus type 1 group M subtype B, UniProt P04585)
- Construct: made in house; host or cells: E. coli BL21 (DE3)
- PROTOCOL SUMMARY: Integrase strand-transfer scintillation proximity assay
- Format: biochemical
- SETTINGS: integrase strand-transfer SPA; read-out: IC50
- Excerpt: Integrase Strand-Transfer Scintillation Proximity Assay Oligonucleotides: Oligonucleotide #1-5′-(biotin)[…]-3′ (SEQ ID NO: 1) and oligonucleotide #2-5′-[…]-3′ (SEQ ID NO: 2), were synthesized by TriLink BioTechnologies, Inc. (San Diego, Calif.). The annealed product represents preprocessed viral ds-DNA derived from the LTR U5 sequence of the viral genome. […]
pIC50: −log10 of the molar value.
ASSAY METRIC: pIC50

| MOLECULE | ASSAY METRIC | READOUT NUMBER |
| --- | --- | --- |
| CONC(=O)c1cc2c(C(=O)N3CCC[C@@H]3CO)cn(Cc3ccc(F)cc3)c2cn1 [Example 46] | pIC50 | 6.05 |
| Cc1c(CNC(=O)c2cn(Cc3ccc(F)cc3)c3cnc(C(=O)N(C)O)cc23)cnn1C [Example 17] | pIC50 | 6.77 |
| CCN1CCCC1CNC(=O)c1cn(Cc2ccc(F)cc2)c2cnc(C(=O)NO)cc12 (centres unmarked) [Example 31] | pIC50 | 6.85 |
| CONC(=O)c1cc2c(C(=O)NCc3cnn(C)c3C)cn(Cc3ccc(F)cc3)c2cn1 [Example 11] | pIC50 | 6.28 |
| CONC(=O)c1cc2c(C(=O)NCC(F)F)cn(Cc3ccc(F)cc3)c2cn1 [Example 48] | pIC50 | 6.29 |
| O=C(NO)c1cc2c(C(=O)NCC34CCCN3CCC4)cn(Cc3ccc(F)cc3)c2cn1 [Example 25] | pIC50 | 6.82 |
| O=C(NO)c1cc2c(NS(=O)(=O)c3ccc4c(c3)CNCC4)cn(Cc3ccc(F)cc3)c2cn1 [Example 20] | pIC50 | 6.43 |
| CN(C)C1CCN(C(=O)c2cn(Cc3ccc(F)cc3)c3cnc(C(=O)NO)cc23)C1 (centres unmarked) [Example 26] | pIC50 | 6.80 |
